Test: Half-life in rat liver microsomes
Type: ADME, Microsome
readout.name: half-life

- structure.notation: "COc1ccccc1-c1ccc2cnc(Nc3ccc(N4CCN(C)CC4)cc3)nn12"
  half-life: "14 min"

[Q] Given the entry CN1CCN(c2ccc(Nc3ncc4ccc(-c5ccccc5N(C)S(C)(=O)=O)n4n3)cc2)CC1 , report its measured half-life.
[A] 21 min

====

Molecular target: Cytochrome P450 2C19 (Homo sapiens, UniProt P33261)
Sequence (P33261 whole entry): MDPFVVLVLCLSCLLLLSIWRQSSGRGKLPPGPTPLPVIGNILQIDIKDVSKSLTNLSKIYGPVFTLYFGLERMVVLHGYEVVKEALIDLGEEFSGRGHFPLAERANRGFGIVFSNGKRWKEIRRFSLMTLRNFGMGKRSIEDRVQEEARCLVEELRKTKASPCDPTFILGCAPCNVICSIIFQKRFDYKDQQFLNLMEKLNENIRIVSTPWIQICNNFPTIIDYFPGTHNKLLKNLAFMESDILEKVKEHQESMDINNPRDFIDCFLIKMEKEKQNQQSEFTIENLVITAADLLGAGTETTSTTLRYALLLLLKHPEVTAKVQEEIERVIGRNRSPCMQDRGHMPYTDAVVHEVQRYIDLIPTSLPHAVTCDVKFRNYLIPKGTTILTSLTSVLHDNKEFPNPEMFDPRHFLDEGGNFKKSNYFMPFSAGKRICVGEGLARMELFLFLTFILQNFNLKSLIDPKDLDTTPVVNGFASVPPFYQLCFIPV
pIC50: −log10 of the molar value.
readout.name: pIC50

[Q] Given the entry COc1ccccc1-c1ccc2cnc(Nc3ccc(N4CCN(C)CC4)cc3)nn12 , report its measured pIC50.
[A] < 4.52

Data provenance: ChEMBL document CHEMBL1821719
